Origin of values: paper PMC8922279

test system: Caco-2 cells; assay: Caco-2 permeability / efflux transporter substrate; settings: Caco-2
Assay Endpoint: Efflux Transporter Substrate

Cn1nnnc1SCC1=C(C(=O)O)N2C(=O)[C@@H](NC(=O)Cc3ccc(C4=NCCCN4)cc3)[C@H]2SC1 [TBBL-0000309] | Likely
CON=C(C(=O)N[C@@H]1C(=O)N2C(C(=O)O)=C(CSc3cccc[n+]3[O-])CS[C@H]12)c1csc(N)n1 [TBBL-0000539] | Likely
Cn1c(SCC2=C(C(=O)O)N3C(=O)[C@@H](NC(=O)Cc4ccccc4CN)[C@H]3SC2)nnc(O)c1=O [TBBL-0000460] | Poor or no
CCc1nnc(SCC2=C(C(=O)O)N3C(=O)[C@@H](NC(=O)Cc4ccc(C5=NCCN5)cc4)[C@H]3SC2)s1 [TBBL-0000310] | Poor or no
NCc1ccccc1CC(=O)N[C@@H]1C(=O)N2C(C(=O)O)=C(CSc3nnnn3CCO)CS[C@H]12 [TBBL-0000656] | Likely

Here is another molecule to look at.
Entry CC=CC(=O)OCC1=C(C(=O)O)N2C(=O)[C@@H](NC(=O)C(=NO)c3cccs3)[C@H]2SC1 [TBBL-0000058] has what Efflux Transporter Substrate?
Poor or no
